assay-info: NCI Yeast Anticancer Drug Screen. Data for the mec2-1 strain (AID 157)
recorded-conditions: S. cerevisiae mec2-1 strain, at 50.0 µM, active compounds read high
The panel holds about 79,000 compounds, 15% with a hit somewhere; the sample as a whole holds those more often.
endpoint-label: growth inhibition (%)
Express the result in % but write the number alone.

**Query** // query growth inhibition value for entry O=P(OC1=NCCN1Cc1ccccc1)(OC1=NCCN1Cc1ccccc1)N1CC1
**Result** 5.6

**Query** Could you tell me which growth inhibition is on file for CC[N+](C)(CC)CCOC(=O)c1ccccc1Oc1ccc(C)cc1 ?
**Result** -2.45

**Query** Look at this compound and give its reported growth inhibition. O=S(=O)(O)c1cc(O)ccc1O.O=S(=O)(O)c1cc(O)ccc1O.[NH-]C1CCCCC1[NH-].[Pt+2]
**Result** -4.85

**Query** Which measured growth inhibition value corresponds to O=S(=O)(c1ccccc1)C1CCCCC1I (stereo not drawn) ?
**Result** 3.5

**Query** Look at this compound and give its reported growth inhibition. O=C(CCl)N1CCC(CC2(c3cc4ccccc4[nH]3)OCCO2)CC1
**Result** 15.2

**Query** Give its growth inhibition value. Item: CCOC(=O)[C@H]1CSC[C@@H](C(=O)OC)N1
**Result** -4.7

**Query** Reported growth inhibition, compound CC(=O)Nc1ccc(OC2=CCN(C)CC2)cc1 : ____
**Result** -16.1

**Query** If you can, please state the reported growth inhibition value of C[N+](C)(CC(=O)Nc1ccc(Cl)cc1)Cc1ccc2c(c1)CCCC2 .
**Result** 99.8

**Query** What does the record list as growth inhibition for O=C(NC1C(=O)NNC1c1cccc([N+](=O)[O-])c1)c1ccccc1 (stereo not drawn) ?
**Result** -26.1

**Query** Quick check: growth inhibition of C[n+]1c(/C=C\c2ccc(O)cc2)cc(C(N)=O)c2ccccc21 ?
**Result** 11.8

**Query** Name the recorded growth inhibition for O=C1NC(Cc2ccc(O)cc2)C(=O)N1c1ccccc1O (stereo not drawn) .
**Result** 0.95

**Query** Look up growth inhibition: CCc1c(C)[nH]c(C2=NCCC2)c1C
**Result** -9.6

**Query** I am curious: what growth inhibition value has been reported for CCN(CC)C(=O)c1c(-c2ccccc2)nc(-c2ccccc2)c(C(=O)N(CC)CC)c1Cl ?
**Result** 14.6

**Query** Consider the compound shown here: COC12NC(=O)NC(=O)C1(c1ccccc1)CC(C)O2 (stereo not drawn) What is its recorded growth inhibition?
**Result** -2.15

**Query** Using the record for O=C1CN(N2CCOCC2)CC(=O)N2CCCCN12 , report its growth inhibition.
**Result** 1.25

**Query** Need growth inhibition of N#CC1C=CN(Cc2ccccc2)C=C1C(=O)c1ccccc1 (stereo not drawn) , thanks.
**Result** -3.9

**Query** Which growth inhibition value is on record for COc1ccc(C(=O)Nc2c(N)ncnc2N)cc1 ?
**Result** 73.7

**Query** Find the recorded growth inhibition belonging to O=C(NC(=S)Nc1ccc(S(=O)(=O)c2ccc(NC(=S)NC(=O)c3ccccc3)cc2)cc1)c1ccccc1 and report it.
**Result** -32.6

----------
assay-info: NCI Yeast Anticancer Drug Screen. Data for the cln2 rad14 strain (AID 165);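 further: 0% = growth equal to vehicle treated cultures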
recorded-conditions: S. cerevisiae cln2 rad14 strain, at 50.0 µM, active compounds read high
Compounds without any hit were thinned out: in the full panel of roughly 79,000, 15% have a hit.
endpoint-label: growth inhibition (%)
Kindly answer with a numeric value in %, unit omitted.

**Query** I have this compound here, CC1(C)OC(=O)N=C1c1ccc(Cl)cc1 , and I need its recorded growth inhibition.
**Result** 12.5

**Query** Need growth inhibition, item CCCCC(=O)Nc1ccc(Cl)cc1
**Result** 8.2

**Query** Return reported growth inhibition; argument: c1ccc(Oc2ccc(-c3ccccc3)cc2)cc1
**Result** -7.85

**Query** Fill blank: measured growth inhibition of the compound c1ccc2c(c1)ccc1c3c(oc12)CCCC3 is ____.
**Result** -36.4

**Query** Query: growth inhibition; subject: CCN(CC)CCOC(=O)c1c2nc3c(C(=O)OCCN(CC)CC)ccc(C)c3oc-2c(C)c(=O)c1N
**Result** -5.2

**Query** growth inhibition lookup needed for CCNc1ccc(-c2ccc(NCC)cc2)cc1 , thanks.
**Result** 3.2

**Query** What growth inhibition value was documented for this compound, CC(=O)OCc1ccc2ccccc2c1 ?
**Result** -3.2

**Query** Need growth inhibition, item CC1(C)N=C(C2CCCN2C(=O)OCc2ccccc2)OC1=O (stereo not given)
**Result** -1.75

**Query** For the compound shown here, CC(C)(C)OC(=O)NC(CSSCC(NC(=O)OC(C)(C)C)C(=O)O)C(=O)O (stereo not given) , give the reported growth inhibition.
**Result** -3.45

**Query** Reported growth inhibition for O=C(CN1CCCC1)Nc1ccc2sc3ccccc3c(=O)c2n1 : what is it?
**Result** 21.6

**Query** Item C#CCC1(C(=O)OCC)C(=O)c2ccccc2N(C)C1=O (stereo not given) has what recorded growth inhibition?
**Result** 11.4

**Query** Reported growth inhibition for Nc1ccc2c(c1)Cc1cc(O)ccc1-2 : what is it?
**Result** 6.3

**Query** Which growth inhibition value belongs to CCC(CC)C(=O)NC ?
**Result** 2.2

**Query** Would you mind telling me what growth inhibition value was observed for CCc1cccc(CC)c1N1C(=O)C2C(C1=O)C1(Cl)C(Cl)=C(Cl)C2(Cl)C1(Cl)Cl (stereo not given) ?
**Result** 74.2

**Query** What value of measured growth inhibition is listed for O=S(=O)(c1ccc(Br)cc1)N1CCN(S(=O)(=O)c2ccc(Br)cc2)CC1 ?
**Result** -43.2

**Query** So what's the measured growth inhibition for this one? COc1ccc(NC(=O)Oc2ccccc2-c2ccccc2)cc1
**Result** -18.1

**Query** // query growth inhibition value for entry O=c1[nH]c(=O)n(C2CC3OCC3O2)cc1F (stereo not given)
**Result** 20.1

**Query** // lookup growth inhibition for COc1cc2c(cc1OC)C(Cc1ccccc1CCCl)=NCC2
**Result** -1.8

**Query** Entry N#Cc1cnc(SCC(=O)O)nc1N : reported growth inhibition = ?
**Result** 8.8

**Query** Look up growth inhibition for this compound: Cc1ccc(NC(=S)N(C)C)cc1
**Result** -71.8

**Query** Item NC1C(O)C(N)C(O)C(O)C1O (stereo not given) has what recorded growth inhibition?
**Result** 1.6

**Query** What measured growth inhibition goes with CC(=O)NNC(=S)/N=C/c1c(C)[nH]n(-c2ccccc2)c1=O ?
**Result** 2.65

**Query** growth inhibition for COc1ccc2c(c1)CCC1=C2CC2C(=O)C1(C)CCC2(C)OC(C)=O (stereo not given) ?
**Result** -40.5

**Query** Param item = Cc1ccc(Nc2ncnc3c2cnn3-c2ccccc2)cc1 ; retrieve measured growth inhibition.
**Result** -24.1

**Query** Item under review: COC1(OC)N=C(N)C2(C#N)/C(=N/N(C)C)CC(C)C12C#N (stereo not given) . Reported growth inhibition?
**Result** -16.1

**Query** For the compound shown here, CCC(C)CCC(=O)C(C)C=O (stereo not given) , give the reported growth inhibition.
**Result** -5.9

**Query** Sample c1ccc(-c2nc3ccccc3nc2-c2ccc(Cc3ccc(-c4nc5ccccc5nc4-c4ccccc4)cc3)cc2)cc1 — what was its growth inhibition?
**Result** 21.2

**Query** Which growth inhibition is listed for C[C@@H](CC(=O)O)OC1OC(COC(=O)C(C)(C)C)C(OC(=O)C(C)(C)C)C(OC(=O)C(C)(C)C)C1OC(=O)C(C)(C)C (stereo not given in full) ?
**Result** 7

**Query** Need growth inhibition, item O=[N+]([O-])c1ccc2nc(-c3ccccn3)c(-c3ccccn3)nc2c1
**Result** 18.1

**Query** Requested read-out: growth inhibition. Entry: CCOc1ccc(N2CC(=O)N3CCCC(c4ccccc4)N3C(=O)C2)cc1 (stereo not given)
**Result** 4.9

----------
assay-info: NCI Yeast Anticancer Drug Screen. Data for the bub3 strain (AID 167)
recorded-conditions: S. cerevisiae bub3 mutant strain, at 50.0 µM
This is part of a sample that, as a whole, favours compounds with a hit. Of some 79,000 tested, about 15% had one in any assay. Activity calls are given as the source filed them. No stated cut-off is given here; in the data, active means growth inhibition above about 70%; inactive means the rest.
Reply using exactly one outcome from active, inactive

**Query** Can you look up the reported call for Cc1cccc(C(C)C)c1NC(=O)C(=O)CC(=O)c1sc(Nc2ccccc2Cl)nc1C for me?
**Result** inactive

**Query** Recorded call for CN(C)CCCNc1ccc2ncn3c4ccccc4c(=O)c1c23 ?
**Result** inactive

**Query** Test call for this compound, please: O=c1[nH]c(=S)[nH]c2c1CN(CCCN1CCOCC1)CN2
**Result** inactive

**Query** Which outcome was assigned to N#Cc1cnc(SCC(=O)O)nc1N in this test?
**Result** inactive

**Query** So what was the verdict on CCN(CC)CCOC(=O)OCCN(CC)CC in this test?
**Result** inactive

**Query** Field: outcome | Entry: CC(=O)OCC1OC(Nc2[nH]c(=O)n(C)c(=O)c2C(=O)CCl)C(OC(C)=O)C(OC(C)=O)C1OC(C)=O (stereo not given)
**Result** inactive

**Query** Tell me the recorded outcome of this test for CC(=O)Nc1ccc(OCCCc2ccccc2)c([N+](=O)[O-])c1 .
**Result** inactive

**Query** So what was the verdict on COC(=O)C1Cc2ccccc2C1=O (stereo not given) in this test?
**Result** inactive

**Query** Which result was noted for this compound in the test: O=C1c2ccccc2C(=O)c2cc(C[n+]3ccccc3C3OCCO3)ccc21
**Result** inactive

**Query** Test call, this compound: COc1ccc(Cl)cc1NC(=O)Oc1ccc2ccccc2c1
**Result** inactive

**Query** Entry Cc1ccc(NC(=O)NC23CC4CC(CC(F)(C4)C2)C3)cc1 : call = ?
**Result** inactive

**Query** Assay outcome for CC(C)CC(CC(C)C)=NNC(N)=O : what was it?
**Result** inactive

**Query** Which outcome was assigned to OC1COC(c2ccccc2)OC1C(O)C1OC(c2ccccc2)OCC1O (stereo not given) in this test?
**Result** inactive

**Query** # outcome recorded in this test, key = O=C(/C=C/c1ccc(F)c(F)c1)OCCc1ccccc1
**Result** inactive

**Query** Would you mind telling me which call this test gave CCCCNC(=S)N/N=C/c1ccc(OC)cc1 ?
**Result** inactive

**Query** Which outcome was entered for the compound OCC1(c2ccccc2)CCNCC1 in this test?
**Result** inactive

**Query** Per the records of this test, what outcome belongs to O=C(N/C(=C\c1ccccc1[N+](=O)[O-])c1nc2ccccc2[nH]1)c1ccccc1 ?
**Result** inactive

**Query** How was Cn1c([N+](=O)[O-])cnc1CN1CCN(CCO)CC1 classified in this test?
**Result** inactive

**Query** Please share the test call associated with CC1=CC(=O)c2c(C=O)c(O)c(O)c(C(C)C)c2C1=O .
**Result** active

**Query** So what was the verdict on Oc1cccc2ccc(Br)nc12 in this test?
**Result** inactive

**Query** Record lookup: outcome of this test for O=S1(=O)OC(c2ccc(O)cc2)(c2ccc(O)cc2)c2ccccc21 ?
**Result** inactive

**Query** Just curious, what result did CC(=O)OCc1ccc(C)c(COC(C)=O)c1 get here?
**Result** inactive

**Query** Dear colleague, could you share the recorded outcome for O=C(O)C1CC(Cl)C(O)C(Cl)C1 (stereo not given) when you have a moment?
**Result** inactive

**Query** # fetch the recorded call for O=C1NC(=O)[C@@H](OCC2CCCCC2)[C@@H]2OCC3OC(C(O)C3O)C12 (stereo not given in full) here
**Result** inactive

**Query** Please indicate how the test categorized CC(C)(C)C(=O)O[C@H]1C=C[C@@H](O)[C@@H]2[C@H]1[C@@H]1C=C[C@H]2C1 .
**Result** inactive
